biological target: PTP1B (Homo sapiens, UniProt P18031); assay: pNPP hydrolysis, absorbance at […] nm
Sequence (P18031 whole entry): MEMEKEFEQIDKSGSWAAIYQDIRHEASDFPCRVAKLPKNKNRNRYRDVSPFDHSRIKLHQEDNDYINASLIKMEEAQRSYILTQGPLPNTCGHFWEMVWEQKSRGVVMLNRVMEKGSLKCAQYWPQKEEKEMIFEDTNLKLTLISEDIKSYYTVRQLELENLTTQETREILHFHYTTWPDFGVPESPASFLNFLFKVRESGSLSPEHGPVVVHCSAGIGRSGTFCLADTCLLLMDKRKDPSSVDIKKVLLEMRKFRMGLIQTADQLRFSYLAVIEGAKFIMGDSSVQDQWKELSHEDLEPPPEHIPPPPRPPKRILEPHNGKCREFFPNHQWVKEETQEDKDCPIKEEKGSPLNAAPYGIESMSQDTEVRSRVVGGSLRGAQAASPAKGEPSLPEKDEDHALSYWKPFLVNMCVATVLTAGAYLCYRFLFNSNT
measure: IC50 (µM)
Note: unit µM is implicit; provide only the numeric part.

Qu. Param readout= IC50; system= PTP1B (Homo sapiens, UniProt P18031); entry= N#C/C(=C\c1ccc(OCC(=O)O)cc1)c1nc2ccccc2[nH]1 ; returns value.
Ans. 4.1

====

Target: TCPTP (Homo sapiens, UniProt P17706)
Sequence (P17706 1-415): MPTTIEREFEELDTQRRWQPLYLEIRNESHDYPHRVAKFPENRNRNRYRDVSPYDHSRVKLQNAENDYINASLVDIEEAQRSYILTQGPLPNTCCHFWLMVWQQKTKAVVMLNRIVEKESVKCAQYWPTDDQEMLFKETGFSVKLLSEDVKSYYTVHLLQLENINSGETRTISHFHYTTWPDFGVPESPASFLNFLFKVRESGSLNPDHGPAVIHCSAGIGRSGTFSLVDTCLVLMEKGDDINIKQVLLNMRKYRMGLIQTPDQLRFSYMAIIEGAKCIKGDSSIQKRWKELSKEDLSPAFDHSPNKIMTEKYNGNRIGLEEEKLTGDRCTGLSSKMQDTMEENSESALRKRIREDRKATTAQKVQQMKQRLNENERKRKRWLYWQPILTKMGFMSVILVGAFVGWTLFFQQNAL
Assay: phosphatase inhibition assay (protocol printed for PTP1B: pNPP, […] nm)
measure: IC50 (µM)
The reply should contain only the number, in µM.

Qu. Using the record for N#C/C(=C\c1ccc(OCC(=O)O)cc1)c1nc2ccccc2[nH]1 , report its IC50.
Ans. 5.9
